Reference source: patent US20060035925A1

Tested on: Human breast cancer cell line ZR-75-1
ASSAY PROTOCOL: Caspase cascade activation assay (N-(Ac-DEVD)-N'-ethoxycarbonyl-R110 fluorogenic substrate) in ZR-75-1 cells
Assay type: cell-based
TEST CONTEXT: ZR-75-1 cells, 24 h incubation with compound; ratio of net RFU (T=3 h) of test compound to control
READOUT KIND: Caspase activity (Ratio) ZR-75-1
Provide a numeric answer; units are not to be included.

COc1cccc(C2C(C#N)=C(N)Oc3cc(OC)ccc32)c1 (stereo not drawn) : 5.6
CCNc1ccc2c(c1)OC(N)=C(C#N)C2c1cc(OC)c(OC)c(OC)c1 (stereo not drawn) : 7.0
COc1cccc(C2C3=CC=C4C=CN=C4C3OC(N)=C2C#N)c1 (stereo not drawn) : 5.9

Input: Caspase activity (Ratio) ZR-75-1 for N#CC1=C(N)OC2C3=CC=NC3=CC=C2C1c1cccc(F)c1 (stereo not drawn) ?
Output: 7.4

Input: Input Cc1cncc(C2C3=CC=C4N=CC=C4C3OC(N)=C2C#N)c1 (stereo not drawn)
Output: 5.5

Input: Now try CCNc1ccc2c(c1)OC(N)=C(C#N)C2c1cccc([N+](=O)[O-])c1 (stereo not drawn) .
Output: 12.8

Input: Same question, COc1cc(C2C(C#N)=C(N)Oc3c2ccc(N)c3C)cc(Br)c1OC (stereo not drawn) this time
Output: 3.9

Input: What do you have for COc1cc(OC)cc(C2C(C#N)=C(N)Oc3cc(OC)ccc32)c1 (stereo not drawn) ?
Output: 6.7

Input: Likewise for N#CC1=C(N)OC2C3=CC=NC3=CC=C2C1c1cncc(C#N)c1 (stereo not drawn) ?
Output: 7.3

====

Caspase activity (Ratio) ZR-75-1 listing for selected compounds.
Tested on: Human breast cancer cell line ZR-75-1
ASSAY PROTOCOL: Caspase cascade activation assay (N-(Ac-DEVD)-N'-ethoxycarbonyl-R110 fluorogenic substrate) in ZR-75-1 cells
Type: cell-based
TEST CONTEXT: ZR-75-1 cells, 24 h incubation with compound; ratio of net RFU (T=3 h) of test compound to control
Could you keep your reply to the number by itself?

Would you please look over these solved cases?
COc1cc(C2C(C#N)=C(N)Oc3c2ccc2ccn(C)c32)cc(Br)c1OC (stereo not drawn) [Example 77] : 3.1
N#CC1=C(N)OC2C3=CC=NC3=CC=C2C1c1cnc2ccccc2n1 (stereo not drawn) [Example 59] : 1.2
Cc1cccc(C2C(C#N)=C(N)Oc3cc(N)ccc32)c1 (stereo not drawn) [Example 23] : 5.2

Input: I'd like to know its Caspase activity (Ratio) ZR-75-1. The compound in question is COc1cccc(C2C3=CC=C4N=CC=C4C3OC(N)=C2C#N)c1 (stereo not drawn) [Example 46]
Output: 7.1

Input: Item: N#CC1=C(N)OC2C3=CC=NC3=CC=C2C1c1cccc(Cl)c1 (stereo not drawn) [Example 2G]
Output: 4.5

Input: Also check COc1ccc2c(c1)OC(N)=C(C#N)C2c1cncc(C)c1 (stereo not drawn) [Example 30]
Output: 13.2

Input: Request: Cc1cncc(C2C3=CC=C4C=CN=C4C3OC(N)=C2C#N)c1 (stereo not drawn) [Example 55]
Output: 7.2

Input: Queued: N#CC1=C(N)Oc2cc(N)ccc2C1c1cccc(C#N)c1 (stereo not drawn) [Example 20]
Output: 5.2

====

# Lookup of reported Caspase activity (Ratio) ZR-75-1 keyed by entry
Tested on: Human breast cancer cell line ZR-75-1
ASSAY PROTOCOL: Caspase cascade activation assay (N-(Ac-DEVD)-N'-ethoxycarbonyl-R110 fluorogenic substrate) in ZR-75-1 cells
Assay type: cell-based
TEST CONTEXT: ZR-75-1 cells, 24 h incubation with compound; ratio of net RFU (T=3 h) of test compound to control
Form rule: numeric answer, no unit written next to it.

The cases that follow already have their Caspase activity (Ratio) ZR-75-1 on record.
COc1cccc(C2C(C#N)=C(N)Oc3cc(N)ccc32)c1 (stereo not drawn) [Example 21] : 9.2
CNC1=C(C#N)C(c2cc(Br)c(OC)c(OC)c2)c2ccc3ccn(C)c3c2O1 (stereo not drawn) [Example 76] : 2.3
COc1cccc(C2C(C#N)=C(N)Oc3c2ccc(N)c3N)c1 (stereo not drawn) [Example 44] : 9.6
COc1cc(C2C(C#N)=C(N)Oc3c2ccc(N)c3O)cc(Br)c1OC (stereo not drawn) [Example 74] : 8.9
COc1ccc2c(c1)OC(N)=C(C#N)C2c1cccnc1 (stereo not drawn) [Example 17] : 8.2
COc1cc(C2C(C#N)=C(N)Oc3c2ccc(O)c3O)cc(Br)c1OC (stereo not drawn) [Example 2C] : 0.9

Input: I would be grateful if you could share the reported Caspase activity (Ratio) ZR-75-1 for COc1ccc2c(c1)OC(N)=C(C#N)C2c1cccc(Br)c1 (stereo not drawn) [Example 6] .
Output: 12.8

Input: Request: COc1cc(C2C3=CC=C4N=CC=C4C3OC(N)=C2C#N)cc(Br)c1O (stereo not drawn) [Example 50]
Output: 10.6

Input: Please answer likewise for COc1cccc(C2C(C#N)=C(N)Sc3cc(OC)ccc32)c1 (stereo not drawn) [Example 70]
Output: 6.6

====

Listed here are molecules together with their documented Caspase activity (Ratio) ZR-75-1.
System: Human breast cancer cell line ZR-75-1
ASSAY PROTOCOL: Caspase cascade activation assay (N-(Ac-DEVD)-N'-ethoxycarbonyl-R110 fluorogenic substrate) in ZR-75-1 cells
Format: cell-based
TEST CONTEXT: ZR-75-1 cells, 24 h incubation with compound; ratio of net RFU (T=3 h) of test compound to control
Kindly provide the number alone.

Use the examples below as a reference point.
N#CC1=C(N)OC2C(=CC=C3C=CN=C32)C1c1cccc(C#N)c1 (stereo not shown) : 7.0
Cc1cncc(C2C(C#N)=C(N)Oc3cc(N)ccc32)c1 (stereo not shown) : 5.6
N#CC1=C(N)OC2C(=CC=C3C=CN=C32)C1c1cncc(C#N)c1 (stereo not shown) : 5.5

Please look at the following molecule next.
Input: State the recorded Caspase activity (Ratio) ZR-75-1 for this entry: COc1ccc2c(c1)OC(N)=C(C#N)C2C1CC=CCC1 (stereo not shown)
Output: 5.2

====

System: Human breast cancer cell line ZR-75-1
ASSAY PROTOCOL: Caspase cascade activation assay (N-(Ac-DEVD)-N'-ethoxycarbonyl-R110 fluorogenic substrate) in ZR-75-1 cells
Type: cell-based
TEST CONTEXT: ZR-75-1 cells, 24 h incubation with compound; ratio of net RFU (T=3 h) of test compound to control
Procedure: Human breast cancer cell lines T-47D and ZR-75-1 were grown according to media component mixtures designated by American Type Culture Collection +10% FCS (Invitrogen Corporation), in a 5% CO2-95% humidity incubator at 37° C. […] After the 3 h incubation, the samples were read for fluorescence as above (T=3 h). The Relative Fluorescence Unit values (RFU) were used to calculate the sample readings as follows: RFU(T=3h)−Control RFU(T=0)=Net RFU(T=3h) […]
READOUT KIND: Caspase activity (Ratio) ZR-75-1
Please reply with the number alone, leaving off any unit.

Some molecules with recorded Caspase activity (Ratio) ZR-75-1:
COc1cc(OC)cc(C2C3=CC=C4C=CN=C4C3OC(N)=C2C#N)c1 (stereo not shown) [Example 52] : 9.9
Cc1cncc(C2C3=CC=C4C=CN=C4C3OC(N)=C2C#N)n1 (stereo not shown) [Example 61] : 7.0
COc1cc(C2C(C#N)=C(N)Oc3cc(O)ccc32)cc(Br)c1OC (stereo not shown) [Example 1] : 10.8

Input: Write down the reported Caspase activity (Ratio) ZR-75-1 of COc1cc(C2C(C#N)=C(N)Oc3c2ccc2[nH]c(=O)[nH]c32)cc(Br)c1OC (stereo not shown) [Example 80] , test system: Human breast cancer cell line ZR-75-1.
Output: 7.5

Input: Quick one: N#CC1=C(N)Nc2ccccc2C1c1ccccc1 (stereo not shown) [Example 71]
Output: 4.1

Input: Moving on to COc1ccc2c(c1)OC(N)=C(C#N)C2c1cccc(F)c1 (stereo not shown) [Example 2N]
Output: 6.8

Input: Same read-out for N#CC1=C(N)OC2C3=CC=NC3=CC=C2C1c1cc(Cl)cc(Cl)c1 (stereo not shown) [Example 2F] ?
Output: 4.4

Input: Cool, now N#CC1=C(N)Oc2cc(O)ccc2C1c1cccc(C#N)c1 (stereo not shown) [Example 2B]
Output: 1.9

Input: Ok, now COc1ccc2c(c1)OC(N)=C(C#N)C2c1cccc([N+](=O)[O-])c1 (stereo not shown) [Example 11]
Output: 6.6

Input: Let us now turn to N#CC1=C(N)OC2C3=CC=NC3=CC=C2C1c1ccccc1 (stereo not shown) [Example 56]
Output: 7.7

Input: Note, next up: COc1cc(C2C(C#N)=C(N)Oc3c2ccc2[nH]cnc32)cc(Br)c1OC (stereo not shown) [Example 64]
Output: 4.8

Input: Moving on to CCNc1ccc2c(c1)OC(N)=C(C#N)C2c1cccc(Br)c1 (stereo not shown) [Example 7]
Output: 10.7

Input: Same read-out for COc1cncc(C2C(C#N)=C(N)Oc3cc(OC)ccc32)c1 (stereo not shown) [Example 40] ?
Output: 8.9

Input: What would you report for N#CC1=C(N)Oc2cc(N)ccc2C1c1cccc(Cl)c1 (stereo not shown) [Example 22] ?
Output: 8.0

Input: Next: CCNc1ccc2c(c1)OC(N)=C(C#N)C2c1cc(OC)cc(OC)c1 (stereo not shown) [Example 14]
Output: 7.7

Input: Thanks! And COc1ccc2c(c1)OC(N)=C(C#N)C2c1cccc(Cl)c1 (stereo not shown) [Example 10] ?
Output: 9.0

Input: Can you handle COc1ccc2c(c1)OC(N)=C(C#N)C2c1cc(F)cc(F)c1 (stereo not shown) [Example 2J] next?
Output: 7.4

Input: Another: N#CC1=C(N)Oc2c(ccc3cc[nH]c23)C1c1cccc(C(F)(F)F)c1 (stereo not shown) [Example 54]
Output: 7.5
